Kindly supply the reported pIC50 values for the records listed here.
- MEASURED TARGET: His6-ERα298-554 WT (ERα ligand-binding domain) (Homo sapiens (Human))
- Sequence (P03372 298-554): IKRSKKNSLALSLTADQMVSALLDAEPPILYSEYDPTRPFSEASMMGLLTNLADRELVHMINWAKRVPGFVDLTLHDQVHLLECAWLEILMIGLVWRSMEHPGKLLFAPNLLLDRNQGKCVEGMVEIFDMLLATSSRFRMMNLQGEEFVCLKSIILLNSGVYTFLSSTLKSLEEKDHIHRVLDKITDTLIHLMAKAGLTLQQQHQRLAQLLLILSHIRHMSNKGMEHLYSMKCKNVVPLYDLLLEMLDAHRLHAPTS
- TEST DETAILS: Test A: biochemical antagonist activity, LanthaScreen TR-FRET ERα coactivator assay, WT
- ASSAY SETUP: asterisk (*): protocol using 10 nM estradiol; read-out: Antagonism WT IC50
The scale used: pIC50 is minus the common logarithm of the concentration in molar units.

Ask: GET /values?readout=pIC50&item= `CCOc1ccc(C2=C(c3ccc(O[C@H]4CCN(CCCF)C4)cc3)c3cc(F)c(O)cc3OCC2)c(C)c1`
Result: 7.68

Ask: GET /values?readout=pIC50&item= `CC1(C)Cc2cc(C3=C(c4ccc(O[C@H]5CCN(CCCF)C5)cc4)c4ccc(O)cc4SC3)ccc2O1`
Result: 7.72

Ask: GET /values?readout=pIC50&item= `Cc1ccc(C2=C(c3ccc(O[C@H]4CCN(CCCF)C4)cc3)c3ccc(C(=O)O)cc3SC2)c(F)c1`
Result: 5.85

Ask: GET /values?readout=pIC50&item= Cc1ccc(C2=C(c3ccc(O[C@H]4CCN(CCCF)C4)cc3)c3ccc(O)cc3[S+]([O-])C2)c(F)c1 (stereo partly shown) [Example 57]
Result: 5.97

Ask: GET /values?readout=pIC50&item= `CCOc1cc(F)c(C2=C(c3ccc(O[C@H]4CCN(CCCF)C4)cc3)c3ccc(O)cc3SC2)cc1F`
Result: 7.36

Ask: GET /values?readout=pIC50&item= `Oc1ccc2c(c1)SCC(c1ccc(O)nc1F)=C2c1ccc(O[C@H]2CCN(CCCF)C2)cc1`
Result: 8.30

Ask: GET /values?readout=pIC50&item= CC1Cc2c([nH]c3ccccc23)C(c2c(F)cc(O[C@H]3CCN(CCCF)C3)cc2F)N1CC(C)(C)F (single isomer, unassigned) [Example 257]
Result: 5.48
